- experimental target: Cyclooxygenase (Rattus norvegicus, UniProt P35355+Q63921)
- Sequence (P35355 whole entry): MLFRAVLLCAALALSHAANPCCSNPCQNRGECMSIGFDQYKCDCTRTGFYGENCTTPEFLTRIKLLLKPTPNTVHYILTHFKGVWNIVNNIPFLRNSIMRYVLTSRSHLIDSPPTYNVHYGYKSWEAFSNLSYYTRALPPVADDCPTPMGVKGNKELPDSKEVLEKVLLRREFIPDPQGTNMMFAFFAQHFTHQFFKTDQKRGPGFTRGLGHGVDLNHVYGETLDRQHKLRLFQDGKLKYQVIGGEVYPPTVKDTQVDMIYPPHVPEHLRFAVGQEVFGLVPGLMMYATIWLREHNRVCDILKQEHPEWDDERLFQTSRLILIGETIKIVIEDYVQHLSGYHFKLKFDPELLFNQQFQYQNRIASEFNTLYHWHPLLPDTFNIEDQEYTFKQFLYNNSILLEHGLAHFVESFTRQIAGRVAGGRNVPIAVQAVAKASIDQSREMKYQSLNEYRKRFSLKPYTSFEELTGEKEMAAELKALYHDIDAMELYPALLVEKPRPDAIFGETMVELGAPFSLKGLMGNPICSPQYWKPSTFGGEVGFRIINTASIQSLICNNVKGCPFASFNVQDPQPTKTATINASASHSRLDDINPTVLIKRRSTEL
- Sequence (Q63921 whole entry): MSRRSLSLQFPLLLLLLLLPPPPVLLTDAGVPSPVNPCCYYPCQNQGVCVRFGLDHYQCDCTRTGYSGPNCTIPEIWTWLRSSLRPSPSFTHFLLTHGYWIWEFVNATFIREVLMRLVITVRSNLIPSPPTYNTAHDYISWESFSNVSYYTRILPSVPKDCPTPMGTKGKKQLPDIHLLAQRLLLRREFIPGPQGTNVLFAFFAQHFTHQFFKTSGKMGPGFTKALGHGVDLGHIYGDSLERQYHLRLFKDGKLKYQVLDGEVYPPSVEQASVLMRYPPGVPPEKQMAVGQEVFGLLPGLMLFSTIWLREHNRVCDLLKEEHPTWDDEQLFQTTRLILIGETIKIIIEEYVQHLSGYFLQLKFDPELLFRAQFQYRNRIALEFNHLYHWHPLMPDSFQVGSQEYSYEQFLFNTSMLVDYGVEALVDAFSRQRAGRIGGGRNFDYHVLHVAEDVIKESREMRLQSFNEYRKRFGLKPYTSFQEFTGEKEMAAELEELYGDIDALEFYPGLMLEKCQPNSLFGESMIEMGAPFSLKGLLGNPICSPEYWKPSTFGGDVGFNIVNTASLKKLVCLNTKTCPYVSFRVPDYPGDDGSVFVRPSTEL
- assay summary: Inhibition of cyclooxygenase in rat RBL1 cells
- Assay type: cell-based
- recorded conditions: rbl-1
value kind: IC50 (µM)
A number alone suffices; assume µM.

(Q) Give its IC50 value. Item: COc1ccc(O)c(C(=O)/C=C/c2ccccc2)c1
(A) 41

(Q) Record: COc1cccc(OC)c1/C=C/C(=O)c1ccccc1
(A) 370

(Q) Record: COc1ccc(OC)c(/C=C/C(=O)c2ccccc2)c1
(A) 7.8

(Q) Record: COc1ccc(OC)c(C(=O)/C=C/c2ccccc2)c1
(A) 7.8

(Q) Record: COc1ccc(/C=C/C(=O)c2ccccc2)c(O)c1
(A) 15

(Q) Record: COc1ccc(C(=O)/C=C/c2ccc(O)c(OC)c2)cc1
(A) 12

(Q) Record: CC(C)Oc1ccc(O)c(C(=O)/C=C/c2ccccc2)c1
(A) 11

(Q) Record: O=C(/C=C/c1ccccc1)c1cc(O)ccc1O
(A) 64

(Q) Record: CCOc1ccc(OC)c(C(=O)/C=C/c2ccccc2)c1
(A) 38

(Q) Record: CC(C)c1ccc(O)c(C(=O)/C=C/c2ccccc2)c1
(A) 4

(Q) Record: Cc1ccc(O)c(C(=O)/C=C/c2ccccc2)c1
(A) 39

(Q) Record: COc1cc(/C=C/C(=O)c2ccccc2)cc(OC)c1OC
(A) 16

(Q) Record: O=C(/C=C/c1ccccc1)c1ccccc1
(A) 43

(Q) Record: Cc1cccc(/C=C/C(=O)c2ccccc2)c1
(A) 27

(Q) Record: O=C(/C=C/c1ccc(O)c(O)c1)c1c(O)cc(O)cc1O [3,4,2',4',6'-PENTAHYDROXYCHALCONE]
(A) 0.14

(Q) Record: COc1cc(/C=C/C(=O)c2ccccc2)ccc1O
(A) 9

(Q) Record: COc1ccc(OC(C)C)cc1C(=O)/C=C/c1ccccc1
(A) 14

(Q) Record: COc1ccccc1/C=C/C(=O)c1ccccc1
(A) 27

(Q) Record: COc1cc(/C=C/C(=O)c2ccc(Cl)cc2)ccc1O
(A) 8.9

(Q) Record: CC(C)Oc1ccc(/C=C/C(=O)c2ccccc2)cc1
(A) 41

(Q) Record: CCOc1ccc(O)c(C(=O)/C=C/c2ccccc2)c1
(A) 5.3

(Q) Record: CN(C)c1ccc(/C=C/C(=O)c2ccccc2)cc1
(A) 4.7

(Q) Record: CCOc1ccc(OC)cc1C(=O)/C=C/c1ccccc1
(A) 27

(Q) Record: O=C(/C=C/c1ccc(Cl)cc1)c1ccccc1
(A) 85

(Q) Record: Cc1ccc(/C=C/C(=O)c2ccccc2)cc1
(A) 76

(Q) Record: O=C(/C=C/c1ccccc1Cl)c1ccccc1
(A) 92

(Q) Record: Cc1ccc(/C=C/C(=O)c2ccccc2)c(C)c1
(A) 17

(Q) Record: O=C(/C=C/c1ccc([N+](=O)[O-])cc1)c1ccccc1
(A) 23

(Q) Record: O=C(/C=C/c1ccc(O)c(O)c1)c1cccc(O)c1
(A) 0.0042

(Q) Record: CCCCOc1ccc(O)c(C(=O)/C=C/c2ccccc2)c1
(A) 1

(Q) Record: CN(C)c1cccc(/C=C/C(=O)c2ccccc2)c1
(A) 9.8

(Q) Record: O=C(/C=C/c1ccc(O)c(O)c1)c1ccc(O)cc1O
(A) 0.0046

(Q) Record: O=C(/C=C/c1ccccc1C(F)(F)F)c1ccccc1
(A) 58

(Q) Record: COc1ccc(C)cc1C(=O)/C=C/c1ccccc1
(A) 24

(Q) Record: O=C(/C=C/c1ccc(O)cc1)c1ccc(O)cc1O
(A) 35

(Q) Record: Cc1ccc(C)c(C(=O)/C=C/c2ccccc2)c1
(A) 16

(Q) Record: COc1cccc(/C=C/C(=O)c2ccccc2)c1
(A) 6.5
